# System: Colo 320
# Test Name: Cytotoxic MTT assay, 24 h
# Reported Conditions: IC50 resistant (Colo 320)/IC50 sensitive (Colo 205), cytotoxic assay
Measured Metric: RR (relative resistance ratio) (B/A)

| Molecule | System Name | Quantitative Readout |
| --- | --- | --- |
| COC(=O)CC(C)(O)CC(=O)OC1CC2(C)C3=C(C(=O)CC2C(C)(C)C1OC(C)=O)C1(C)CCC(C(C)CCC(=O)C(C)(C)O)C1(C)CC3O (stereo not shown) | Colo 320 | 1.87 |
| COC(=O)CC(C)(O)CC(=O)OC1C(O)CC2(C)C3=C(C(=O)CC2C1(C)C)C1(C)CCC(C(C)CCC(=O)C(C)(C)O)C1(C)CC3 (stereo not shown) | Colo 320 | 0.84 |
| COc1cccc2c1C(=O)c1c(O)c3c(c(O)c1C2=O)C[C@@](O)(C(=O)CO)C[C@@H]3O[C@H]1C[C@H](N)[C@H](O)[C@H](C)O1 [Dox, doxorubicin, reference compound] | Colo 320 | 3.60 |
| CC(=O)O[C@H]1[C@H](OC(=O)C[C@](C)(O)CC(=O)O)C[C@]2(C)C3=CC[C@]4(C)[C@@H]([C@H](C)CCC(=O)C(C)(C)O)CC[C@@]4(C)C3=CC[C@H]2C1(C)C | Colo 320 | 0.62 |
